- ASSAYED TARGET: human Edg 1 receptor (Homo sapiens, UniProt P21453)
- Construct: expressed in transfected cells; membrane preparation
- Sequence (P21453 whole entry): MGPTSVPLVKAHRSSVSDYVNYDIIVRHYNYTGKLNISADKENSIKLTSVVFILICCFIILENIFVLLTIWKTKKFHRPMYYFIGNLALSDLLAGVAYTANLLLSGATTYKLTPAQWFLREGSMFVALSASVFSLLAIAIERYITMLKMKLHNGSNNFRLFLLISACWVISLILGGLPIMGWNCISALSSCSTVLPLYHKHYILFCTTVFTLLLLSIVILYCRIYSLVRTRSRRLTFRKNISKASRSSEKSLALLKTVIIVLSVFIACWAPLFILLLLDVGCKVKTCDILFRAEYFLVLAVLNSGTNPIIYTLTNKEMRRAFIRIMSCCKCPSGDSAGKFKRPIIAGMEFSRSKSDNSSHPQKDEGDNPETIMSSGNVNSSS
- MEASUREMENT DESCRIPTION: GTP-γ-S assay using human Edg 1 receptors (scintillation proximity assay, CHO Flp-In membrane preparation)
- Format: biochemical
- CONDITION CONTEXT: test compound at 10 μM; high control 10 μM S1P regarded as 100% activation; background-corrected; triplicate; read-out: % activation (Edg 1 receptor activation in percent of the activation by 10 μM S1P)
OBSERVABLE: activation at 10 µM (%)

CCCOc1nc(Oc2ccc(C)c(F)c2)nc2oc(-c3cc(C)c(OCC(=O)N4CCC[C@H]4C(=O)O)c(C)c3)nc12 [Example 5] | 79

(1) CCCOc1nc(N(C)CCC(F)(F)F)nc2oc(-c3cc(C)c(OCC(=O)N4CCC[C@H]4C(=O)O)c(C)c3)nc12 [Example 15]
(2) CCCOc1nc(Oc2ccccc2F)nc2oc(-c3cc(C)c(OCC(=O)N4CCC[C@H]4C(=O)O)c(C)c3)nc12 [Example 3]
Could you check which of 1 and 2 has a smaller value for activation at 10 µM? API: response body contains the label of the selected item.
1
(1: 42%, 2: 96%)

###

- ASSAYED TARGET: human Edg 1 receptor (Homo sapiens, UniProt P21453)
- Construct: expressed in transfected cells; membrane preparation
- MEASUREMENT DESCRIPTION: GTP-γ-S assay using human Edg 1 receptors (scintillation proximity assay, CHO Flp-In membrane preparation)
- Assay type: biochemical
- CONDITION CONTEXT: test compound at 10 μM; high control 10 μM S1P regarded as 100% activation; background-corrected; triplicate; read-out: % activation (Edg 1 receptor activation in percent of the activation by 10 μM S1P)
OBSERVABLE: activation at 10 µM (%)

Illustrative cases are given below, each with its answer.
CCOc1nc(Oc2cccc(Cl)c2)nc2oc(-c3cc(C)c(OCC(=O)N4CCC[C@H]4C(=O)O)c(C)c3)nc12 [Example 10] | 69
CCCOc1nc(OC2CCCC[C@H]2F)nc2oc(-c3cc(C)c(OCC(=O)N4CCC[C@H]4C(=O)O)c(C)c3)nc12 (stereo partly shown) [Example 2] | 97

(I) CCOc1nc(Oc2cccc(F)c2)nc2oc(-c3cc(C)c(OCC(=O)N4CCC[C@H]4C(=O)O)c(C)c3)nc12 [Example 11]
(II) CCOc1nc(Oc2ccccc2F)nc2oc(-c3cc(C)c(OCC(=O)N4CCC[C@H]4C(=O)O)c(C)c3)nc12 [Example 12]
Which value of activation at 10 µM is greater, the one for I or the one for II ? API: response body contains the label of the selected item.
I

(A) CCCOc1nc(OCC2CCC2)nc2oc(-c3cc(C)c(OCC(=O)N4CCC[C@H]4C(=O)O)c(C)c3)nc12 [Example 16]
(B) CCCOc1nc(Oc2cccc(Cl)c2)nc2oc(-c3cc(C)c(OCC(=O)N4CCC[C@H]4C(=O)O)c(C)c3)nc12 [Example 9]
Could you check which of A and B has a smaller value for activation at 10 µM? API: response body contains the label of the selected item.
A

###

- ASSAYED TARGET: human Edg 1 receptor (Homo sapiens, UniProt P21453)
- Construct: expressed in transfected cells; membrane preparation
- MEASUREMENT DESCRIPTION: GTP-γ-S assay using human Edg 1 receptors (scintillation proximity assay, CHO Flp-In membrane preparation)
- Assay type: biochemical
- CONDITION CONTEXT: test compound at 10 μM; high control 10 μM S1P regarded as 100% activation; background-corrected; triplicate; read-out: % activation (Edg 1 receptor activation in percent of the activation by 10 μM S1P)
OBSERVABLE: activation at 10 µM (%)

CCCOc1nc(Oc2ccccc2)nc2oc(-c3cc(C)c(OCC(=O)N4CCC[C@H]4C(=O)O)c(C)c3)nc12 [Example 8] | 108
CCCOc1nc(Oc2cc(F)ccc2F)nc2oc(-c3cc(C)c(OCC(=O)N4CCC[C@H]4C(=O)O)c(C)c3)nc12 [Example 1] | 101
CCCOc1nc(Oc2cccnc2)nc2oc(-c3cc(C)c(OCC(=O)N4CCC[C@H]4C(=O)O)c(C)c3)nc12 [Example 6] | 112
CCCOc1nc(Oc2ccc(F)cc2F)nc2oc(-c3cc(C)c(OCC(=O)N4CCC[C@H]4C(=O)O)c(C)c3)nc12 [Example 7] | 90
CCCOc1nc(Oc2cc(F)ccc2C)nc2oc(-c3cc(C)c(OCC(=O)N4CCC[C@H]4C(=O)O)c(C)c3)nc12 [Example 4] | 110
CCOc1nc(Oc2cc(F)ccc2F)nc2oc(-c3cc(C)c(OCC(=O)N4CCC[C@H]4C(=O)O)c(C)c3)nc12 [Example 13] | 95
CCOc1nc(Oc2cc(F)ccc2C)nc2oc(-c3cc(C)c(OCC(=O)N4CCC[C@H]4C(=O)O)c(C)c3)nc12 [Example 14] | 99
